# Test system: FXR:RXRa (NR concentration 270 nM, RXRa partner concentration 90 nM)
# TEST METHOD NOTES: PBM binding z-score (relative to random genomic background probes); higher = stronger binding; sequences stand for … in GC…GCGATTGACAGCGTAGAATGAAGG
ASSAY READOUT: PBM binding z-score

# example entries with known answers
In [3]: df
Out[3]:
                       query_sequence  reported_measurement
0  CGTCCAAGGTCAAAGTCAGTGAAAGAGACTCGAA                  7.61
1  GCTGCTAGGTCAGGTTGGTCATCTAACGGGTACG                  1.59

Here is the next item to consider.
Case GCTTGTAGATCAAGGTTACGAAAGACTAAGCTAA , FXR:RXRa (NR concentration 270 nM, RXRa partner concentration 90 nM), PBM binding z-score recorded as 0.195

---

Each entry below carries its recorded PBM binding z-score.
# Tested on: LXRa:RXRa (NR concentration 270 nM, RXRa partner concentration 90 nM)
# TEST METHOD NOTES: PBM binding z-score (relative to random genomic background probes); higher = stronger binding; sequences stand for … in GC…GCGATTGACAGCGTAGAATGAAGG
Please state the value as a number alone, without comment.

Notebook: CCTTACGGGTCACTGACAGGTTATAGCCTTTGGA , PBM binding z-score read as 4.01

Please fill in: PBM binding z-score reported for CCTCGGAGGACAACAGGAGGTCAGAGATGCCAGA = 1.85

The recorded PBM binding z-score for entry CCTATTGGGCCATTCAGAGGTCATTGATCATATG equals 4.68

Input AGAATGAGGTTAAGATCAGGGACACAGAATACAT . Output PBM binding z-score: 2.04

Item: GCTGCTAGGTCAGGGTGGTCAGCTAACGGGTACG | PBM binding z-score: 1.02

Per the record, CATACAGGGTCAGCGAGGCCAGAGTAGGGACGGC has PBM binding z-score of 3.36

---

# Test system: THRa:RXRa (NR concentration 90 nM, RXRa partner concentration 90 nM)
# TEST METHOD NOTES: PBM binding z-score (relative to random genomic background probes); higher = stronger binding; sequences stand for … in GC…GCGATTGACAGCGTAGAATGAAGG
ASSAY READOUT: PBM binding z-score
// keep it numeric: no unit symbol after the value

                       query_sequence  reported_measurement
0  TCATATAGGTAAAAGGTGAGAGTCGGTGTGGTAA                  1.26
1  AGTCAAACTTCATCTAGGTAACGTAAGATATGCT                 0.484
2  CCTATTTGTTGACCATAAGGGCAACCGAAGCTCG                  1.78
3  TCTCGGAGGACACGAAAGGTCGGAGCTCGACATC                   2.7
4  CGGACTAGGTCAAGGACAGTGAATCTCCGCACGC                   2.8
5  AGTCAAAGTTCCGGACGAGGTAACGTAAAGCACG                  1.62
6  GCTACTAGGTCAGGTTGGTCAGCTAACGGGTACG                  1.85
7  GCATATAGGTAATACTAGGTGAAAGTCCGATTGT                  3.45

Here is the next item to consider.
Entry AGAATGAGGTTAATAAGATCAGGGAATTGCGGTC ; PBM binding z-score = 2.04

---

# System: PPARg:RXRa (NR concentration 180 nM, RXRa partner concentration 90 nM)
# TEST METHOD NOTES: PBM binding z-score (relative to random genomic background probes); higher = stronger binding; sequences stand for … in GC…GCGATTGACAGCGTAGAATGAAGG
Entries get a class label from measured PBM binding z-score. See ranges: low = under 0.8, intermediate = from 0.8 up to 2, high = 2 and over

>>> df
                       query_sequence  assigned_class
0  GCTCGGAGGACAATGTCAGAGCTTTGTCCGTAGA             low
1  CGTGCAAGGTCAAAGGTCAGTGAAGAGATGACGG            high
2  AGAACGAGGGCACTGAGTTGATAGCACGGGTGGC    intermediate
3  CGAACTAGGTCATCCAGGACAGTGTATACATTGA            high
4  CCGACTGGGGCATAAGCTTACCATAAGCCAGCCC             low
5  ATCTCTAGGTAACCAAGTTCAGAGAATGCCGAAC             low
6  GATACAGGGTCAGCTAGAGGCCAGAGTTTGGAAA            high
7  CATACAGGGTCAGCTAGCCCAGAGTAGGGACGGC            high
8  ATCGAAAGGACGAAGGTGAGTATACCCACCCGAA    intermediate
9  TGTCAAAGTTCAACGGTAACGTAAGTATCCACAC            high

Please indicate the class for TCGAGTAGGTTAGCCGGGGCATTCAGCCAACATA based on its PBM binding z-score.
low

Which category does the recorded PBM binding z-score put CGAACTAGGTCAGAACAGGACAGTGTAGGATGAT in?
high

---

# Test system: FXR:RXRa (NR concentration 270 nM, RXRa partner concentration 90 nM)
# TEST METHOD NOTES: PBM binding z-score (relative to random genomic background probes); higher = stronger binding; sequences stand for … in GC…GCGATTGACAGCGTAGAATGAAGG
ASSAY READOUT: PBM binding z-score
The reply should be a number, written without any unit.

Please review the following examples before continuing.
>>> df
                       query_sequence        assay_readout  reported_measurement
0  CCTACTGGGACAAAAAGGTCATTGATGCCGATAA  PBM binding z-score                  3.77
1  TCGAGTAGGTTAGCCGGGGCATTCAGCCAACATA  PBM binding z-score                0.0762
2  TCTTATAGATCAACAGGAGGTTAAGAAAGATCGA  PBM binding z-score                 0.826
3  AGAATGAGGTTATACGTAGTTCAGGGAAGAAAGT  PBM binding z-score                  2.23
4  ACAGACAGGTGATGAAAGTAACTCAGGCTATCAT  PBM binding z-score                -0.313

// PBM binding z-score lookup, sequence = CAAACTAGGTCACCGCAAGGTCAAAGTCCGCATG , result: 6.27

PBM binding z-score in this record for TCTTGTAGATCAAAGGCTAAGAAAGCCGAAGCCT : 0.284

The measured PBM binding z-score associated with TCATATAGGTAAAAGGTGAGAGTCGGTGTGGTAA reads 1.07

// sample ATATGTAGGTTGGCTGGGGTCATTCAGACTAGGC , its PBM binding z-score was 4.06

---

# Test system: RXRa homodimer (NR concentration 180 nM)
# TEST METHOD NOTES: PBM binding z-score (relative to random genomic background probes); higher = stronger binding; sequences stand for … in GC…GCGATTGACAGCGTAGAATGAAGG
Think of 1 as a floor: if PBM binding z-score stands on it or above, it is criterion met; beneath it, criterion not met.

Recorded results for 5 sequences are shown here.
                       query_sequence                              assay_system     assigned_class
0  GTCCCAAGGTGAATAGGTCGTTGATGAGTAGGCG  RXRa homodimer (NR concentration 180 nM)      criterion met
1  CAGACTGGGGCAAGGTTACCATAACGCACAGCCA  RXRa homodimer (NR concentration 180 nM)      criterion met
2  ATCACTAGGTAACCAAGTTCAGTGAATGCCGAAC  RXRa homodimer (NR concentration 180 nM)  criterion not met
3  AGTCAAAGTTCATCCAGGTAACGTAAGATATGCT  RXRa homodimer (NR concentration 180 nM)      criterion met
4  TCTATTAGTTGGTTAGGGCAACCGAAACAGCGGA  RXRa homodimer (NR concentration 180 nM)  criterion not met

Identify whether the reported PBM binding z-score of the following sequence is 1 or greater: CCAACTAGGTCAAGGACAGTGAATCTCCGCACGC
criterion met

Kindly determine if PBM binding z-score recorded for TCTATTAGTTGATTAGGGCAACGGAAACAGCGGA is above or exactly 1.
criterion not met

Could you tell me if the measured PBM binding z-score of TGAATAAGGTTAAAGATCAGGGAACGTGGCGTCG reaches 1 or more?
criterion met

Reported PBM binding z-score at or above 1? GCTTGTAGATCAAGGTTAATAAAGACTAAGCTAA
criterion not met

Has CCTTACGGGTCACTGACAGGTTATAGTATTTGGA a recorded PBM binding z-score greater than or equal to 1?
criterion met

Dear colleague, could you confirm whether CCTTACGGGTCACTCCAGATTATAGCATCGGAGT has PBM binding z-score at or above 1?
criterion met
